Biological target: UniProt P17597
Sequence (P17597 whole entry): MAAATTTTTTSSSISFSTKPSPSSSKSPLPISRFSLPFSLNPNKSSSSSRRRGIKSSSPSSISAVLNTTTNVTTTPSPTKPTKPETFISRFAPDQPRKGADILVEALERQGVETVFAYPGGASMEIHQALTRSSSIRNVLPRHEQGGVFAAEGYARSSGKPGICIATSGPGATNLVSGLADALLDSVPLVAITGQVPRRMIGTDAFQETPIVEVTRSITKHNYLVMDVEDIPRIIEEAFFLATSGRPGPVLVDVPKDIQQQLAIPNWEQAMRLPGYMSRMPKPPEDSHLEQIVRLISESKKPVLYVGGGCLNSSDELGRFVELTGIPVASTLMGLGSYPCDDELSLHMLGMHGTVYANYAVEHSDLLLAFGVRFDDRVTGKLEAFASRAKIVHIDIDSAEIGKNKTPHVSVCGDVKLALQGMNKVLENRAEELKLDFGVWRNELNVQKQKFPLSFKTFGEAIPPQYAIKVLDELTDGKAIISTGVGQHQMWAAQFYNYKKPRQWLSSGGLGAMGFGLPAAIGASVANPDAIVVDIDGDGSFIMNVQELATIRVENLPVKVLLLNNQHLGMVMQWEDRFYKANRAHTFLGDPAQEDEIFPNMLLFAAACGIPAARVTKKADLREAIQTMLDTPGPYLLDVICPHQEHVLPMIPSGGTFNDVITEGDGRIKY
Assay: Inhibitory activity against Acetolactate synthase (ALS) enzyme by using the rape-root growth method
Settings: read-out: IC50
pIC50: −log10 of the molar value.
Result Type: pIC50

>>> value_measured("O=S(=O)(Nc1nccs1)c1cc(Cl)ccc1Cl")
4.07
>>> value_measured("Cc1ccnc(NS(=O)(=O)c2ccc(Br)cc2)n1")
4.23
>>> value_measured("Cc1cc(C)nc(NS(=O)(=O)c2cc(Cl)ccc2Cl)n1")
4.48

1. Cc1ccnc(NS(=O)(=O)c2ccc(F)cc2)n1
2. Cc1ccnc(NS(=O)(=O)c2cc(Cl)ccc2Cl)n1
Ask | Thinking about recorded pIC50 values, which is higher, 1 or 2 ? Lab log: write the label of the selected item as the result.
Reply | 1
(1: 4.41, 2: 4.01)
